- assayed target: Estrogen receptor (Mus musculus) (UniProt O08537+P19785)
- Sequence (O08537 whole entry, looked up): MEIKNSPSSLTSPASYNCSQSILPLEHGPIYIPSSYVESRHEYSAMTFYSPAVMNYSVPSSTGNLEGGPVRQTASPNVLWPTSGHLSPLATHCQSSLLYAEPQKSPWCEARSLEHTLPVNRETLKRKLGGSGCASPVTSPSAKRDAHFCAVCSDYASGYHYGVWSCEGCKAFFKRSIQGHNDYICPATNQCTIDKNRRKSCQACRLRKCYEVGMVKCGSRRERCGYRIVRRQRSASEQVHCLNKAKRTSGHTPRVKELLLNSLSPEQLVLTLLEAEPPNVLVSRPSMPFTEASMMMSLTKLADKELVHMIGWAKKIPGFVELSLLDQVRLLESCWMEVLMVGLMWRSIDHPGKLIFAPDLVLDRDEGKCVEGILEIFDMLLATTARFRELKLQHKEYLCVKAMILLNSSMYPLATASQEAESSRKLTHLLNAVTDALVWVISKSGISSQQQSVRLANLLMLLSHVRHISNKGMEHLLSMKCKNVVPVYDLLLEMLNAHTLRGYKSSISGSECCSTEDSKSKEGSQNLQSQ
- Sequence (P19785 whole entry, looked up): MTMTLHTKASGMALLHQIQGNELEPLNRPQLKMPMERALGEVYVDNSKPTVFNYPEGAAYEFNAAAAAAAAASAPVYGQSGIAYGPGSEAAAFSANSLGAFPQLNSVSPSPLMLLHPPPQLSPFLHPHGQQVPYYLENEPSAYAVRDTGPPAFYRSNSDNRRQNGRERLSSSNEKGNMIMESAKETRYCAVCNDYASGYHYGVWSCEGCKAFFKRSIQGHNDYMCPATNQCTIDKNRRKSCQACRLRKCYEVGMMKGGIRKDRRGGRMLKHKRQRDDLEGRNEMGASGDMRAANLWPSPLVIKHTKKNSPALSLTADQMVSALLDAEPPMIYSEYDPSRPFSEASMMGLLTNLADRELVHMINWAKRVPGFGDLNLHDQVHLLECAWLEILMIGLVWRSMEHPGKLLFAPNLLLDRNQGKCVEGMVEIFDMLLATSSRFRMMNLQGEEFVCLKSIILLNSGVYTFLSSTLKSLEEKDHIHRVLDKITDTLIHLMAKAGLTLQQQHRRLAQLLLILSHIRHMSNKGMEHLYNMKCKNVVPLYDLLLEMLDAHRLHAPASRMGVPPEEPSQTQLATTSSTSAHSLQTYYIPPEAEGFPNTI
- assay summary: Percentage inhibition of uterotrophic effects of estradiol in vivo following 100 ug i.p.
- Type: functional, organism-based
- measurement setup: in the assay text read “s.c.” for “i.p.”
measured quantity: inhibition (%)
Please respond with the number in % and leave the unit unwritten.

Dear colleague, I am looking for the recorded inhibition of the following compound: CC(=O)Oc1ccc(/C(=C/c2ccccc2)C(=O)c2ccccc2)cc1
39

Please give the measured inhibition for this compound: O=C(/C(=C\c1ccccc1)c1ccc(O)cc1)c1ccc(O)cc1
55

Need inhibition, item O=C(/C(=C\c1ccccc1)c1ccccc1)c1ccccc1
51

Give its inhibition value. Item: COc1ccc(C(=O)/C(=C\c2ccccc2)c2ccccc2)cc1
48

What value of measured inhibition is listed for CC(=O)Oc1ccc(/C=C(/C(=O)c2ccc(OC(C)=O)cc2)c2ccccc2)cc1 ?
58

Query: inhibition; subject: O=C(/C(=C\c1ccccc1)c1ccccc1)c1ccc(O)cc1
60

For the compound shown here, COc1ccc(/C=C(/C(=O)c2ccccc2)c2ccccc2)cc1 , give the reported inhibition.
42

Value lookup for inhibition; key = CC(=O)Oc1ccc(/C(=C\c2ccccc2)C(=O)c2ccccc2)cc1
20

# lookup: inhibition of COc1ccc(C(=O)/C(=C/c2ccccc2)c2ccccc2)cc1
27

inhibition lookup needed for COc1ccc(/C(=C\c2ccccc2)C(=O)c2ccccc2)cc1 , thanks.
36

// query inhibition value for entry O=C(/C(=C/c1ccccc1)c1ccc(O)cc1)c1ccccc1
36
